- measurement.protocol: Effect of compound on multidrug resistance in murine L-5178 cells at 4 ug/ml concentration; expressed as fluorescence activity ratio (treated/untreated cells)
- Type: functional, Mus musculus
Exercise: state measured Effect for each of the compounds provided.

query: Effect for "COc1cc(/C=C2\CCC/C(=C\c3ccc([N+](=O)[O-])cc3)C2=O)cc(OC)c1OC" ?
result: 15.6

query: What measured Effect goes with "COc1ccc(/C=C2\Cc3ccccc3/C(=C\c3ccc([N+](=O)[O-])cc3)C2=O)cc1OC" ?
result: 44.1

query: Look up Effect for this compound: "O=C1/C(=C/c2ccc(O)cc2)CCC/C1=C\c1ccc([N+](=O)[O-])cc1"
result: 0.94

query: Recorded Effect of "COc1ccc(/C=C2\Cc3ccccc3/C(=C\c3ccc([N+](=O)[O-])cc3)C2=O)cc1" , please.
result: 4.36

query: Looking for the measured Effect of "COc1ccc(/C=C2\CC/C(=C\c3ccc([N+](=O)[O-])cc3)C2=O)cc1" , can you help?
result: 0.59

query: Query (compound): "COc1cc(/C=C2\CC/C(=C\c3ccc([N+](=O)[O-])cc3)C2=O)cc(OC)c1OC" ; field requested: Effect
result: 3.06

query: Can you look up the measured Effect of "COc1ccc(/C=C2\CCC/C(=C\c3ccc([N+](=O)[O-])cc3)C2=O)cc1OC" for me?
result: 20.4

query: Item under review: "COc1cc(/C=C2\Cc3ccccc3/C(=C\c3ccc([N+](=O)[O-])cc3)C2=O)cc(OC)c1OC" . Reported Effect?
result: 134

query: Which Effect is reported for this compound? "O=C1/C(=C/c2ccc([N+](=O)[O-])cc2)CCC/C1=C\c1ccc2c(c1)OCO2"
result: 0.91

query: GET /values?readout=Effect&item= "COc1cc(/C=C2\CCC/C(=C\c3ccc([N+](=O)[O-])cc3)C2=O)ccc1O"
result: 1.5

query: Which measured Effect value corresponds to "O=C1/C(=C/c2ccc(O)cc2)Cc2ccccc2/C1=C\c1ccc([N+](=O)[O-])cc1" ?
result: 135

query: Which Effect is reported for this compound? "COc1ccc(/C=C2\CCC/C(=C\c3ccc([N+](=O)[O-])cc3)C2=O)cc1"
result: 0.76

query: # get_value(readout='Effect', item= "O=C1/C(=C/c2ccc3c(c2)OCO3)Cc2ccccc2/C1=C\c1ccc([N+](=O)[O-])cc1" )
result: 3.27

query: Value lookup for Effect; key = "COc1cc(/C=C2\Cc3ccccc3/C(=C\c3ccc([N+](=O)[O-])cc3)C2=O)ccc1O"
result: 51.8

query: Which Effect value belongs to "O=C1/C(=C/c2ccc(Cl)cc2)CCC/C1=C\c1ccc([N+](=O)[O-])cc1" ?
result: 1.16

Data provenance is ChEMBL document CHEMBL1141909.
